- Protocol Summary: ACEA_ER_AUC_viability: ACEA Biosciences xCELLigence Real-Time Cell Analysis on Estrogen Receptor Agonism for Viability (AID 2283782);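 further: continuous compound exposure with impedance area under curve over 80 h; hit means loss of impedance signal meaning reduced cell growth or viability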
Results filed as inconclusive are left out. Activity calls are given as the source filed them. How the source made its calls: active means hit-call score of the fitted dose curve at least 0.9, where 1 is the maximum; inconclusive means response in the unintended direction; inactive means score below 0.9.
Hello, when you answer, please use one of the following outcomes: active, inactive

Ask | Given COCCOC(=O)c1ccccc1C(=O)OCCOC , state the outcome it received in this test.
Reply | inactive

Ask | Try the molecule CCCCCCCC/C=C\CCCCCCCC(=O)OCC
Reply | inactive

###

- Study Target: Peroxisome proliferator-activated receptor gamma (Homo sapiens) (UniProt P37231)
- Sequence (P37231 whole entry, looked up): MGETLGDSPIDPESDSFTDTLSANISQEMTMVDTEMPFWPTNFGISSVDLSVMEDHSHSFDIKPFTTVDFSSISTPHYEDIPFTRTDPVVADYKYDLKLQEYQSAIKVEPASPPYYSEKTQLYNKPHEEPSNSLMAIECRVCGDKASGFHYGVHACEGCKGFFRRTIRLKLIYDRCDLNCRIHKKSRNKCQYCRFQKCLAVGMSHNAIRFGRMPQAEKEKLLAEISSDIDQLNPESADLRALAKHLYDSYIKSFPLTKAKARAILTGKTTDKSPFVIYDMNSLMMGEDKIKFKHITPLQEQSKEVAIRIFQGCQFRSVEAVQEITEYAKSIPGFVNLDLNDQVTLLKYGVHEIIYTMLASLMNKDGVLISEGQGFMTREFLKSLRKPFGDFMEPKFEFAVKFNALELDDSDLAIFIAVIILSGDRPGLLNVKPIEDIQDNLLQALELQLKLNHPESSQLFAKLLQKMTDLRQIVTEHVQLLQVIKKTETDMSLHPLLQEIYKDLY
- Protocol Summary: ATG_PPARg_TRANS: Attagene TRANS-FACTORIAL HepG2 Assay for human Peroxisome Proliferator-activated Receptor-gamma (PPARg) (AID 2283007)
Records with an inconclusive call do not appear. Calls of active or inactive are those of the source. Rule for the calls: active = hit-call score of the fitted dose curve at least 0.9, where 1 is the maximum; inconclusive = response in the unintended direction; inactive = score below 0.9.
Return exactly one item of label 1 for active, label 0 for inactive

COC(=O)C=C(C)CCC=C(C)C : label 1
Cc1cc(CCC(=O)OCCOCCOCCOC(=O)CCc2cc(C)c(O)c(C(C)(C)C)c2)cc(C(C)(C)C)c1O : label 1

Ask | Entry O=C1CCCC=CCCCCCCCCCC1 : call = ?
Reply | label 1

Ask | One more compound: CCCCCCCCCC(C)C=O (centres undefined)
Reply | label 1

Ask | Repeat for the following compound: CCCC1O[C@@H]2C[C@H]3[C@@H]4CCC5=CC(=O)C=C[C@]5(C)[C@H]4[C@@H](O)C[C@]3(C)[C@]2(C(=O)CO)O1 (some centres undefined)
Reply | label 0

Ask | What would you report for C=C(C#N)C(=O)OCC ?
Reply | label 0

Ask | Now give it for CC(=O)C1(C)CC2=C(CCCC2(C)C)CC1C (centres undefined) too.
Reply | label 1

Ask | Next compound up: O=C1OC[C@H](Cc2cccc(O)c2)[C@H]1Cc1cccc(O)c1
Reply | label 0

Ask | Now consider O=C1OC(=O)c2c(Br)c(Br)c(Br)c(Br)c21 and answer again.
Reply | label 0

Ask | Continue with FC(F)(F)COCC(F)(F)F
Reply | label 0

Ask | Also C#CC(C)N(C)C(=O)Nc1ccc(Cl)cc1 (centres undefined) ?
Reply | label 0

Ask | What about C=C1C[C@]23C[C@@]1(O)CC[C@H]2[C@@]12C=C[C@H](O)[C@@](C)(C(=O)O1)[C@H]2[C@@H]3C(=O)O ?
Reply | label 0

Ask | Ok, now CCCCCCC(C)(C)S
Reply | label 0

Ask | Entry to check: CCCCCCCCCC(=O)OC
Reply | label 1
